meta.source: ChEMBL document CHEMBL3217755

Tested on: A549
ASSAY NAME: Antiproliferative activity against human A549 cells after 48 hrs by MTT assay
Assay type: functional, cell-based
PROTOCOL CONDITIONS: A549, 48 h
pIC50: −log10 of the molar value.
REPORTED PROPERTY: pIC50

Check out these entries, answers already filled in.
SMILES RECORD: CCN(CC)CCOc1ccc(NC(=O)Nc2cc(OC)c(OC)c(-c3ccc(/C(C)=N/O)c(OC)c3)c2)cc1
TESTED TARGET: A549
pIC50: 4.93
//
SMILES RECORD: COc1cc(-c2cc(NC(=O)Nc3ccc(OCCCN4CCOCC4)cc3)cc(OC)c2OC)ccc1/C(C)=N/O
TESTED TARGET: A549
pIC50: 4.93

I: CCN(CC)CCOc1ccc(C)c(NC(=O)Nc2cc(OC)c(OC)c(-c3ccc(/C(C)=N/O)c(OC)c3)c2)c1
II: CNC(=O)c1cc(Oc2ccc(NC(=O)Nc3ccc(Cl)c(C(F)(F)F)c3)cc2)ccn1
III: COc1cc(-c2cc(NC(=O)Nc3ccc(OCCCN4CCOCC4)cc3C)cc(OC)c2OC)ccc1/C(C)=N/O
Lookup: Hey, quick one: sort these by pIC50, low to high? Your answer should be the labels, listed in the requested order.
Found: III, I, II
(III: 4.63, I: 4.95, II: 5.47)

###

Tested on: K562
ASSAY NAME: Antiproliferative activity against human K562 cells after 48 hrs by MTT assay
PROTOCOL CONDITIONS: K562, 48 h
pIC50: −log10 of the molar value.
REPORTED PROPERTY: pIC50

SMILES RECORD: COc1cc(-c2cc(NC(=O)Nc3ccc(OCCN4CCCC4)cc3)cc(OC)c2OC)ccc1/C(C)=N/O
pIC50: 5.32
//
SMILES RECORD: CCN(CC)CCOc1ccc(C)c(NC(=O)Nc2cc(OC)c(OC)c(-c3ccc(/C(C)=N/O)c(OC)c3)c2)c1
pIC50: 5.90

1: COc1cc(-c2cc(NC(=O)Nc3ccc(OCCN(C)C)cc3)cc(OC)c2OC)ccc1/C(C)=N/O
2: CCN(CC)CCOc1ccc(NC(=O)Nc2cc(OC)c(OC)c(-c3ccc(/C(C)=N/O)c(OC)c3)c2)cc1
3: COc1cc(-c2cc(NC(=O)Nc3ccc(OCCCN4CCOCC4)cc3C)cc(OC)c2OC)ccc1/C(C)=N/O
4: COc1cc(-c2cc(NC(=O)Nc3ccc(OCCCN4CCOCC4)cc3)cc(OC)c2OC)ccc1/C(C)=N/O
Lookup: Ordering criterion: pIC50; begin with the maximum. Your answer should be the labels, listed in the requested order.
Found: 4, 2, 1, 3
(4: 6.54, 2: 5.89, 1: 5.07, 3: 4.80)

###

ASSAY NAME: Antiproliferative activity against human SMMC7721 cells after 48 hrs by MTT assay
Format: functional, cell-based
PROTOCOL CONDITIONS: SMMC-7721, 48 h
# reported pIC50; entries follow
Please express pIC50 as -log10 of the molar concentration.

Check out these entries, answers already filled in.
SMILES RECORD: COc1cc(-c2cc(NC(=O)Nc3ccc(OCCCN4CCOCC4)cc3C)cc(OC)c2OC)ccc1/C(C)=N/O
MEASURED VALUE: 4.48
//
SMILES RECORD: COc1cc(-c2cc(NC(=O)Nc3ccc(OCCCN4CCOCC4)cc3)cc(OC)c2OC)ccc1/C(C)=N/O
MEASURED VALUE: 5.01
//
SMILES RECORD: CCN(CC)CCOc1ccc(NC(=O)Nc2cc(OC)c(OC)c(-c3ccc(/C(C)=N/O)c(OC)c3)c2)cc1
MEASURED VALUE: 4.44

Proceeding to the next compound to report its pIC50.
Lookup: Please look at this compound and report its pIC50: CNC(=O)c1cc(Oc2ccc(NC(=O)Nc3ccc(Cl)c(C(F)(F)F)c3)cc2)ccn1
Found: 5.01
